Target: T1, Recombinant mouse TSG-6 (R&D Biosystems, catalog #2326-TS) (mouse, UniProt O08859 18-275)
T1 construct: Bought protein, used KLH-coupled as the immunogen; also called mTSG-6
T1 sequence (O08859 18-275 limits assumed): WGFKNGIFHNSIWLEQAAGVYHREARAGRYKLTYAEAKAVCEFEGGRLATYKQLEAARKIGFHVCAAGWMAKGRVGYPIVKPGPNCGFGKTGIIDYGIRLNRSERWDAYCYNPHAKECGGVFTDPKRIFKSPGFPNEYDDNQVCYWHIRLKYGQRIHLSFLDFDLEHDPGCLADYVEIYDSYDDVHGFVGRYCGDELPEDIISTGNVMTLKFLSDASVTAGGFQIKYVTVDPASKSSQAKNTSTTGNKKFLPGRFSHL
Experiment: hybridoma raised against mouse TSG-6; clone selection by ELISA
Description: Mouse antibodies directed against mouse TSG-6 protein (mTSG-6) were generated using conventional mouse monoclonal antibody techniques. Briefly, mice (strain SJL/J) were inoculated with KLH-coupled recombinant mouse TSG-6 (R&D Biosystems, catalog #2326-TS). After boosting, antibody titers were determined by ELISA, using a non-relevant His6-tagged protein as a control. […]

# binder, binding result
data = [
    ("4F1 (antibody, V domains shown, Entries as printed include a leader and part of the constant region) VH: EVKLVESGGGLVQPGGSLSLSCAASGFTFTDYYMSWVRQPPGKALEWLGFIRHKAKGYTAEYSASVKGRFTISRDNSQSILYLQMNALRAEDSATYYCARLYYYGSPHWYFDVWGTGTTVTVSS VL: QIVLTQSPAIMSASPGEKVTMTCSASSSVSYMHWYQQKSGTSPKRWIYDTSKLASGVPARFSGSGSGTSYSLTISSMEAEDAATYYCQQWSSNPPTFGSGTELEIKR", "binds"),
]
